Target: Left-right determination factor 2 (Homo sapiens) (UniProt O00292)
Sequence (O00292 whole entry, looked up): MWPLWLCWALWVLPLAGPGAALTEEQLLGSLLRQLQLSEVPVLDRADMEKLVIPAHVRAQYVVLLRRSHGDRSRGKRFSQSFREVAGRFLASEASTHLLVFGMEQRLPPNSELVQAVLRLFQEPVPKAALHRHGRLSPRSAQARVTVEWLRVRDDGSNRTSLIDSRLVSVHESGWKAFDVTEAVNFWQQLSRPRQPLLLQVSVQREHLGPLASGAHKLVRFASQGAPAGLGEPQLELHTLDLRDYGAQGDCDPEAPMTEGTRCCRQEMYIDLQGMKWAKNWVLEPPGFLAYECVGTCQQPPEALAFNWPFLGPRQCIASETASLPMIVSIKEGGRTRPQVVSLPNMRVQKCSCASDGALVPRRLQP
Experiment: LEFTY2 binders on small-molecule microarrays, primary screen, biochemical, small-molecule microarray, 635 nm fluorescence scan (AID 1110)
Settings: LEFTY2 binding, higher = more signal
// reported composite z-score per item
Number only, no unit.

# Compound, composite z-score
data = [
    ("O=C1C[C@@H](O)[C@@H](O)[C@@H]2[C@@H]3C(=O)N(C[C@@H]4CCCO4)C(=O)[C@@H]3CC[C@H]12", 0.903),
]

Here is the next item to consider.
So what does the record say about composite z-score for CO[C@@H]1COC(=O)CC=C[C@@H](C)[C@@H]2C=C[C@H](O)[C@@H](COC(=O)CC=C[C@H]1C)O2 ?
1.5
